- Tested on: Liver (HepG2) cancer cell line
- assay-notes: IC50 by MTT assay, HepG2
- Assay type: cell-based
- experimental-context: HepG2, 48 h
pIC50: −log10 of the molar value.
experimental-readout: pIC50

{"compound": "N.N.[Cl][Pt][Cl] [Cisplatin]", "readout-value": 4.70}
